System: SF-539 CNS
Measurement notes: NCI tumour cell line growth inhibition, 48 h; in the data active = GI50 below about 0.43 µM; inactive = the rest
Returns: one label drawn from active, inactive

Field: outcome | Entry: COC(C)(C)C/C=C/C(C)=C/C=C/C(C)=C\C=C\C(C)=C\C=C\C=C(C)\C=C\C=C(C)\C=C\C=C(C)\C=C\CC(C)(C)OC
inactive

Field: outcome | Entry: O=C(/C=C/c1ccc(C(F)(F)F)cc1)c1ccc(Nc2nc(NCCO)nc(Nc3ccc(Cl)cc3)n2)cc1
inactive

Field: outcome | Entry: CCOC(=O)c1c2c(n3ccccc13)C(=O)c1ncccc1C2=O
active

Field: outcome | Entry: COc1cc2c(cc1OCCCC(=O)Nc1ccc3ccc4cccc5ccc1c3c45)N=C[C@@H]1CCCN1C2=O
active

Field: outcome | Entry: CCN(CC)c1ccc(C(=O)c2ccc(N(CC)CC)cc2)cc1
inactive

Field: outcome | Entry: CCCCCCCc1cc2c3c(nc4ccccc42)C(=O)c2cccnc2-c3n1
inactive

Field: outcome | Entry: O=c1c(-c2ccccc2)coc2cc(OC/C(=N/O)c3ccccc3)ccc12
inactive

Field: outcome | Entry: CCNC(=O)O[C@H]1CN[C@H](C#Cc2cc3ncnc(Nc4ccc(OCc5cccc(F)c5)c(Cl)c4)c3s2)C1
inactive

Field: outcome | Entry: O=C1CCc2c(sc3[nH]c(=S)n(Cc4ccc(Cl)cc4)c(=O)c23)C1
active

Field: outcome | Entry: O=C(OC[C@H]1O[C@H](OC(=O)c2cc(O)c(O)c(OC(=O)c3cc(O)c(O)c(O)c3)c2)[C@H](OC(=O)c2cc(O)c(O)c(OC(=O)c3cc(O)c(O)c(O)c3)c2)[C@@H](OC(=O)c2cc(O)c(O)c(OC(=O)c3cc(O)c(O)c(O)c3)c2)[C@@H]1OC(=O)c1cc(O)c(O)c(OC(=O)c2cc(O)c(O)c(O)c2)c1)c1cc(O)c(O)c(OC(=O)c2cc(O)c(O)c(O)c2)c1
inactive

Field: outcome | Entry: C=C1C(=O)O[C@H]2[C@H]1CC/C(Cn1cc(-c3ccccc3C(F)(F)F)nn1)=C\CC[C@@]1(C)O[C@@H]21
inactive

Field: outcome | Entry: O=C1c2ccccc2-c2c1c1ccccc1c(=O)n2CCCn1ccnc1
inactive

Field: outcome | Entry: CC(C)=CC1=C2C3=C(C(=O)C4(O)Oc5c(C)c6c7c(c5OC24C)[C@@H](C)CC[C@@H]7[C@@H](C)C[C@H]6C=C(C)C)C(C)CCC3C(C)C1 (some centres undefined)
inactive

Field: outcome | Entry: O=C1C(Cl)=C(NCc2ccco2)C(=O)c2ccccc21
inactive
